TARGET_OF_ASSAY: GDP-bound KRAS wild-type protein (Homo sapiens)
Sequence (P01116 whole entry): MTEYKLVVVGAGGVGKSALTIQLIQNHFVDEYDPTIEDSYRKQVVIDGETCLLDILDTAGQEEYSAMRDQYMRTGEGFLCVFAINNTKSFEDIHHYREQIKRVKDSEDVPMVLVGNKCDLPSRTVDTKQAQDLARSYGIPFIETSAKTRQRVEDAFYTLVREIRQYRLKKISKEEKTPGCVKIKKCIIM
PROTOCOL: Binding to KRAS by surface plasmon resonance (SPR), Single Cycle Kinetics
APPLIED_CONDITIONS: SPR Single Cycle Kinetics, GDP-bound KRAS wild-type protein, 1:1 binding model; read-out: KRAS KD
Where a SMILES comes first, the peptide text is derived from it. Bridges are numbered along the chain shown (N, C = ends). [ ]: non-standard residue; d: D form. The star is where a group is joined. hPhe(3,5-F2-4-CF3) = N[C@@H](CCc1cc(F)c(C(F)(F)F)c(F)c1)C(=O)O; hPhe(3-Cl-4-CF3) = N[C@@H](CCc1ccc(C(F)(F)F)c(Cl)c1)C(=O)O; NPrPhe(4-CF3) = CCCN[C@@H](Cc1ccc(C(F)(F)F)cc1)C(=O)O; NEtPhe(4-F) = CCN[C@@H](Cc1ccc(F)cc1)C(=O)O; NMeGly(cPent) = CN[C@H](C(=O)O)C1CCCC1; NMeD = CN[C@@H](CC(=O)O)C(=O)O; Ac4c(3-oxa) = NC1(C(=O)O)COC1; NMeL = CN[C@@H](CC(C)C)C(=O)O; Morpholide = C1CN(*)CCO1; Ac5c = NC1(C(=O)O)CCCC1; Aze = O=C(O)[C@@H]1CCN1; Sar = CNCC(=O)O
MEASURE_NAME: pKd
Answers are plain numbers, as −log10 of the molar value.

Examples with answers:
- COMPOUND: "CCC[C@H]1C(=O)N[C@@H]([C@@H](C)CC)C(=O)N(C)CC(=O)N(C)[C@H]2C/C=C\\CCN(C2=O)[C@@H](Cc2ccc(C(F)(F)F)cc2)C(=O)N(C)CC(=O)N[C@@H](CCc2ccc(C(F)(F)F)c(Cl)c2)C(=O)N2CCCCC[C@H]2C(=O)NC2(CC(C)(C)C2)C(=O)N(C)[C@@H](C(CC)CC)C(=O)N(C)[C@H](C(=O)N(C)C)CC(=O)N1C [PP2964]"
  MEASURED_RESULT: 9.07
- COMPOUND: "CCO[C@@H]1C[C@H]2C(=O)NC3(CC(C)(C)C3)C(=O)N(C)[C@@H](C3CCCC3)C(=O)N(C)[C@H](C(=O)N3CCOCC3)CC(=O)N(C)[C@@H](CC(C)C)C(=O)N[C@@H]([C@@H](C)CC)C(=O)N(C)CC(=O)N(C)[C@H]3CCCCCN(C3=O)[C@@H](Cc3ccc(C(F)(F)F)cc3)C(=O)N(C)CC(=O)N[C@@H](CCc3cc(F)c(C(F)(F)F)c(F)c3)C(=O)N2C1 [PP0726]"
  MEASURED_RESULT: 8.96

Could I get pKd for every one of these entries?
1. CC[C@H](C)[C@@H]1NC(=O)[C@H](CC(C)C)N(C)C(=O)C[C@@H](C(=O)N2CCOCC2)N(C)C(=O)[C@H](C2CCCC2)N(C)C(=O)C2(CCCC2)NC(=O)[C@@H]2CCCN2C(=O)[C@H](CCc2ccc(C(F)(F)F)c(Cl)c2)NC(=O)CN(C)C(=O)[C@H](Cc2ccc(F)cc2)N(CC)C(=O)CN(C)C(=O)CN(C)C1=O [PP0213] ([NMeL]I[Sar][Sar][NEtPhe(4-F)][Sar][hPhe(3-Cl-4-CF3)]P[Ac5c][NMeGly(cPent)][NMeD]-Morpholide; lactam N-11)
2. C#CC[C@H]1C(=O)N[C@@H]([C@@H](C)CC)C(=O)N(C)CC(=O)N(C)[C@H]2CCCCN(C2=O)[C@@H](Cc2ccc(C(F)(F)F)cc2)C(=O)N(C)CC(=O)N[C@@H](CCc2cc(F)c(C(F)(F)F)c(F)c2)C(=O)N2C[C@H](OCC)C[C@H]2C(=O)NC2(CCC2)C(=O)N(C)[C@@H](C2CCCC2)C(=O)N(C)[C@H](C(=O)N2CCOCC2)CC(=O)N1C [PP0711]

9.60
10.60

Provide one value: measured pKd of CCCN1C(=O)[C@@H]2CCN2C(=O)CN(C)C(=O)[C@H]([C@@H](C)CC)NC(=O)[C@H](CC(C)C)N(C)C(=O)C[C@@H](C(=O)N2CCOCC2)N(C)C(=O)[C@H](C2CCCC2)N(C)C(=O)C2(COC2)NC(=O)[C@@H]2CCCN2C(=O)[C@H](CCc2cc(F)c(C(F)(F)F)c(F)c2)NC(=O)CN(C)C(=O)[C@@H]1Cc1ccc(C(F)(F)F)cc1 [PP0801] ([NMeL]I[Sar][Aze][NPrPhe(4-CF3)][Sar][hPhe(3,5-F2-4-CF3)]P[Ac4c(3-oxa)][NMeGly(cPent)][NMeD]-Morpholide; lactam N-11)
9.35
